tested on: HCC95; test: Cell viability dose-response, HCC95; assay type: cell-based; conditions: Homo sapiens, Tables 3 and 4, read-out: IC50 (uM) vs indicated non-small cell lung cancer cell line HCC95
For each entry below, report its IC50 value.
Give bare numbers, in µM.

Give IC50 for each of the items listed below.
1. O=C(Nc1nnc(C2CCCCC2)s1)c1sc2ccccc2c1Cl
2. O=C(Nc1nc2c(s1)CCCC2)c1ccccc1Oc1ccccc1
3. O=C(Nc1nc2ccc(O)cc2s1)c1c(F)ccc(O)c1F
4. O=C(c1ccc(O)cc1)c1ccc(NC(=O)c2sc3ccccc3c2Cl)cc1
5. COc1ccc2nc(NC(=O)c3c(F)ccc(OC)c3F)sc2c1
6. CCOC(=O)c1c(NC(=O)c2ccc(F)cc2)sc2c1CCCC2

Reply |
1. 23.8
2. 140
3. 44.9
4. 12.8
5. 3.19
6. 31.4
